biological target: T1, Claudin 18.2 (CLDN18.2), expressed on CHOS-CLDN 18.2 / HEK293-CLDN 18.2 / HCC827-CLDN 18.2 cells (human, UniProt P56856-2 1-261); test: FACS, CHOS-CLDN18.2 cells
T1 construct: whole, on cells; The species is not repeated for the CHOS-CLDN 18.2 cells; also called claudin-18A2
READOUT_NAME: max
Form rule: numeric answer, no unit written next to it.

Lookup: Dear colleague, I am looking for the recorded max of the following binder: QP14501448 (antibody, human IgG1, kappa, V domains shown, Humanized from QP199200) VH: EVQLVESGGGLVQPGGSLRLSCAASGFTFSSFGMHWVRQAPGKGLEWVAYISSGSNSIYYVDTVKGRFTISRDNAKNSLYLQMNSLRDEDTAVYYCARNAYYGNSFDYWGQGTLVTVSS VL: DIVMTQSPDSLAVSLGERATISCKSSQSLLNSGNQKNYLTWYQQKPGQPPKLLIYWASTRESGVPDRFTGSGSGTVFTLTISSLQAEDVAVYFCQNNYYYPLTFGGGTKVEIKR
Found: 149000
